- assay.system: T1, human IL-18BP (Homo sapiens, UniProt O95998)
- T1 sequence (O95998 31-194): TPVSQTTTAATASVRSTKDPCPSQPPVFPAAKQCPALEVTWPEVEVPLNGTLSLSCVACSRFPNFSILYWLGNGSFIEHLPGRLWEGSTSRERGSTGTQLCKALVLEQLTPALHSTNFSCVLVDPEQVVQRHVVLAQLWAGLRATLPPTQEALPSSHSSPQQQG
- protocol.notes: IL-18BP binding AlphaLISA assay (Example 4 / 17B)
- condition: IL-18 binding protein AlphaLISA
pKd: −log10 of the molar value.
I'd appreciate it if you could supply pKd values for the items below.

Need pKd, item SEQ ID NO: 69: IL-18 polypeptide: E6K, V11I, C38A, M51G, K53A, T63A, C76A, C127A (protein) YFGKLKSKLSIIRNLNDQVLFIDQGNRPLFEDMTDSDARDNAPRTIFIISGYADSQPRGMAVAISVKCEKISTLSAENKIISFKEMNPPDNIKDTKSDIIFFQRSVPGHDNKMQFESSSYEGYFLAAEKERDLFKLILKKEDELGDRSIMFTVQNED
< 5.55

Need pKd, item C181: IL-18 polypeptide: E6K, V11I, C38A, K53A, T63A, C76A, C127A, V153E (protein) YFGKLKSKLSIIRNLNDQVLFIDQGNRPLFEDMTDSDARDNAPRTIFIISMYADSQPRGMAVAISVKCEKISTLSAENKIISFKEMNPPDNIKDTKSDIIFFQRSVPGHDNKMQFESSSYEGYFLAAEKERDLFKLILKKEDELGDRSIMFTEQNED
< 5.55
